# protocol.description: Cytotoxicity against human HCT116 cells after 72 hrs by SRB assay
# Assay type: functional, cell-based
# condition.summary: HCT-116, 72 h
pIC50: −log10 of the molar value.
Please use 1.0 whenever pIC50 is not below 5, and 0.0 whenever it is.

cpd_smiles=COc1ncccc1NC(=O)c1cc(-c2ccc(C)cc2)n(-c2ccc3ccccc3n2)n1 cat=0.0
cpd_smiles=Cc1ccc(-c2cc(C(=O)N3CCN(c4c(Cl)cncc4Cl)CC3)nn2-c2ccc3ccccc3n2)cc1 cat=1.0
cpd_smiles=Cc1ccc(-c2cc(C(=O)N3CCN(c4ccc(C(F)(F)F)cn4)CC3)nn2-c2ccc3ccccc3n2)cc1 cat=0.0
cpd_smiles=Cc1ccc(-c2cc(C(=O)Nc3ccncc3Br)nn2-c2ccc3ccccc3n2)cc1 cat=0.0

---

# protocol.description: Cytotoxicity against human HCT116 cells after 72 hrs by SRB assay
# Type: functional, cell-based
# condition.summary: HCT-116, 72 h
Decide using IC50 alone. Strictly below 7 µM: MET. Equal to or above 7 µM: NOT MET.

cpd_smiles=Cc1ccc(-c2cc(C(=O)Nc3ccnc(Cl)c3)nn2-c2ccc3ccccc3n2)cc1 cat=MET
cpd_smiles=CC[C@@]1(O)C(=O)OCc2c1cc1n(c2=O)Cc2cc3ccccc3nc2-1 cat=MET
cpd_smiles=Cc1ccc(-c2cc(C(=O)N3CCN(c4ncccc4C#N)CC3)nn2-c2ccc3ccccc3n2)cc1 cat="NOT MET"
cpd_smiles=Cc1ccc(-c2cc(C(=O)N3CCN(c4ccccn4)CC3)nn2-c2ccc3ccccc3n2)cc1 cat=MET

---

# protocol.description: Cytotoxicity against human HCT116 cells after 72 hrs by SRB assay
# Format: functional, cell-based
# condition.summary: HCT-116, 72 h
pIC50: −log10 of the molar value.
Measured pIC50 by item
quantity.measured: pIC50

cpd_smiles=Cc1ccc(-c2cc(C(=O)N3CCN(c4ncc(C(F)(F)F)cc4Cl)CC3)nn2-c2ccc3ccccc3n2)cc1 quantity_measured=pIC50 reported=4.88
cpd_smiles=Cc1ccc(-c2cc(C(=O)N3CCN(c4ncccc4C(F)(F)F)CC3)nn2-c2ccc3ccccc3n2)cc1 quantity_measured=pIC50 reported=5.01
cpd_smiles=Cc1ccc(-c2cc(C(=O)Nc3ncc(Br)cc3Br)nn2-c2ccc3ccccc3n2)cc1 quantity_measured=pIC50 reported=5.02
cpd_smiles=Cc1ccc(-c2cc(C(=O)N3CCN(c4cccc(C(F)(F)F)n4)CC3)nn2-c2ccc3ccccc3n2)cc1 quantity_measured=pIC50 reported=5.03
cpd_smiles=Cc1ccc(-c2cc(C(=O)Nc3ccc(Cl)nc3Cl)nn2-c2ccc3ccccc3n2)cc1 quantity_measured=pIC50 reported=5.10
cpd_smiles=Cc1ccc(-c2cc(C(=O)Nc3ccncc3)nn2-c2ccc3ccccc3n2)cc1 quantity_measured=pIC50 reported=5.09
cpd_smiles=Cc1ccc(-c2cc(C(=O)NCc3cccnc3)nn2-c2ccc3ccccc3n2)cc1 quantity_measured=pIC50 reported=4.95
